Biological target: FZD6 (Nluc–FZD6; SNAP–FZD6; SNAP–FZD6–Rluc8; FLAG–FZD6–Nluc) (Homo sapiens, UniProt O60353)
Sequence (O60353 19-706): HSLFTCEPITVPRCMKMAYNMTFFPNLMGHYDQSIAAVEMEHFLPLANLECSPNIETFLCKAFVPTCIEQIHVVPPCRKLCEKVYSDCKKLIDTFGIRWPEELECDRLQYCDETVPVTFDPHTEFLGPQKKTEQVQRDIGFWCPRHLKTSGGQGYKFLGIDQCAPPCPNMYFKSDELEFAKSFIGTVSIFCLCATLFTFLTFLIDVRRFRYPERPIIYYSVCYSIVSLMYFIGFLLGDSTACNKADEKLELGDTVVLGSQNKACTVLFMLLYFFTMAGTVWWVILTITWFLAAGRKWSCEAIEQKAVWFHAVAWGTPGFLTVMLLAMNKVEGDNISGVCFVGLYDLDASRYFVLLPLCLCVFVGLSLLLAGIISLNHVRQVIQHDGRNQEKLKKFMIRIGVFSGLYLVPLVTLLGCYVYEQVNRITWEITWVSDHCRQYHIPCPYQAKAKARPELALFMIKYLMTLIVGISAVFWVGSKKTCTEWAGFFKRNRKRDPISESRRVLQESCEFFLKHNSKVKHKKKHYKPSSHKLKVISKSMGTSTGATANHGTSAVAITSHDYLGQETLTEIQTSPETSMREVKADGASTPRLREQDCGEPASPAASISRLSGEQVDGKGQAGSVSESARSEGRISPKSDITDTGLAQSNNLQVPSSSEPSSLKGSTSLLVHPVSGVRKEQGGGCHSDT
Assay: NanoBRET competition binding, living SMO-knockout HEK293 cells

{"columns": ["SMILES REPR", "Ki [nM]"],
 "data": [
  ["CN[C@H]1CC[C@H](N(Cc2cccc(-c3ccncc3)c2)C(=O)c2sc3ccccc3c2Cl)CC1", 2510]
]}

* * *

Molecular target: FZD6–FlAsH–TFP (Homo sapiens, UniProt O60353, INS404FLNCCPGCCMEP)
Construct: from FZD6–GFP
Sequence (O60353 with tags, fused parts or gaps with the stated changes): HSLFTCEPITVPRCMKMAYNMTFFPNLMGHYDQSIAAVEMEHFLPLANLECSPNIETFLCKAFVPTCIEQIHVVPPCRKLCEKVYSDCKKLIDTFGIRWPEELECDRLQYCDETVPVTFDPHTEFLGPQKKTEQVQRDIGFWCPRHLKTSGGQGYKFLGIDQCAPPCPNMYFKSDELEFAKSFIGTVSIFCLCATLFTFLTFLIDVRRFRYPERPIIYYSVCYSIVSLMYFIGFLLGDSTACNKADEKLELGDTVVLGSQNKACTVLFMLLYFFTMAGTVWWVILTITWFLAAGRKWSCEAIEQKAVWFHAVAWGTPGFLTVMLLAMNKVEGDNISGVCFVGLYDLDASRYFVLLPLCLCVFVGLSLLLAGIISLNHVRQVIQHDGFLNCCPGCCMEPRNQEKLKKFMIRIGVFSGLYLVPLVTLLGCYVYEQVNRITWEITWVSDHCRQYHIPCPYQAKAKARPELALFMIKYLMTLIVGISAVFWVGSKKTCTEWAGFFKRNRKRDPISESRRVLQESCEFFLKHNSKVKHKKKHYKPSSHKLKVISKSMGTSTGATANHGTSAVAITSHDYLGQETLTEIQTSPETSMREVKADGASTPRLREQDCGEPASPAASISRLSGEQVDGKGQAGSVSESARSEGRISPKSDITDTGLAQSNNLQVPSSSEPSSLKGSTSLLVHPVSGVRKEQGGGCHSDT
Assay: intramolecular FRET conformational probe in HEK293 cells

{"columns": ["SMILES REPR", "EC50"],
 "data": [
  ["CN[C@H]1CC[C@H](N(Cc2cccc(-c3ccncc3)c2)C(=O)c2sc3ccccc3c2Cl)CC1", "316 nM"]
]}

Source of measurements: paper PMC6972889
